System: surinam grass
Assay: Test B pre/postemergence surinam grass
Assay type: in vivo, Brachiaria decumbens
Settings: Rate 125 g/ha; Postemergence; scale 0 to 10, 0 no effect, 10 complete control
Protocol: […] At the same time, these crop and weed species were also treated with postemergence applications of test chemicals formulated in the same manner. […] Treated plants and controls were maintained in a greenhouse for twelve to sixteen days, after which all species were compared to controls and visually evaluated. […]
As shown below, each of these molecules has a reported B. signalgrass plant response rating value.
Enter the number alone.

Example cases with answers are listed next.
1. COc1ccc(-n2c(=O)on(C(=O)N(c3ccc(F)cc3F)C(C)C)c2=O)c(OC)c1; 0
2. CCN(Cc1ccccc1)C(=O)n1oc(=O)n(-c2c(C)cccc2C)c1=O; 0

Proceeding to the next molecule to report its B. signalgrass plant response rating.
In: Value lookup for B. signalgrass plant response rating; key = CC(C)N(C(=O)n1oc(=O)n(-c2ccccc2C(F)(F)F)c1=O)c1ccc(F)cc1
Out: 0

---

Catalogue of compounds with associated Bedstraw plant response rating
Test system: bedstraw
Assay: Test B pre/postemergence bedstraw
Assay type: in vivo, Galium aparine
Details: Postemergence, Rate 250 g/ha; scale 0 to 10, 0 no effect, 10 complete control
Protocol: […] At the same time, these crop and weed species were also treated with postemergence applications of test chemicals formulated in the same manner. […] Treated plants and controls were maintained in a greenhouse for twelve to sixteen days, after which all species were compared to controls and visually evaluated. […]
In your answer, state the number alone without any accompanying words.

// known answers, use as guide
1. Cc1cc(C)c(-n2c(=O)on(C(=O)N(c3ccc(Cl)cc3)C(C)C)c2=O)c(C)c1; 6
2. COc1ccccc1-n1c(=O)on(C(=O)N(c2ccc(F)cc2)C(C)C)c1=O; 0
3. Cc1cccc(C(C)C)c1-n1c(=O)on(C(=O)N(c2ccc(Cl)cc2)C(C)C)c1=O; 0
4. CC(C)N(C(=O)n1oc(=O)n(-c2cnn(C)c2Cl)c1=O)c1ccc(F)cc1; 1

In: Consider the compound shown here: COc1ccc(-n2c(=O)on(C(=O)N(c3ccc(F)cc3F)C(C)C)c2=O)c(OC)c1 What is its recorded Bedstraw plant response rating?
Out: 0

---

Tested on: giant foxtail
Assay: Test B pre/postemergence giant foxtail
Type: in vivo, Setaria faberii
Conditions: Preemergence, Rate 500 g/ha; scale 0 to 10 (0 no effect, 10 complete control)
property: Giant foxtail plant response rating

Example cases with answers are listed next.
1. Cc1nsc(C)c1-n1c(=O)on(C(=O)N(c2ccc(F)cc2)C(C)C)c1=O [Compound 157]; 10
2. CC(C)N(Cc1ccccc1)C(=O)n1oc(=O)n(C(C)C)c1=O [Compound 165]; 9
3. CC(C)N(C(=O)n1oc(=O)n(C2CCCCC2)c1=O)c1ccccc1 [Compound 112]; 10

In: Consider the molecule shown here: CCN(CC)C(=O)n1oc(=O)n(Cc2ccccc2)c1=O [Compound 152] What is its recorded Giant foxtail plant response rating?
Out: 5

---

Form field: Plant response rating, Velvetleaf (one value per entry).
Tested on: velvetleaf
Experiment: Test B pre/postemergence velvetleaf
Format: in vivo, Abutilon theophrasti
Details: Rate 250 g/ha, Postemergence; scale 0 to 10, 0 is no effect, 10 is complete control
Method: […] At the same time, these crop and weed species were also treated with postemergence applications of test chemicals formulated in the same manner. […] Treated plants and controls were maintained in a greenhouse for twelve to sixteen days, after which all species were compared to controls and visually evaluated. […]
Form field (numeric): enter value without unit.

1) CC(C)N(C(=O)n1oc(=O)n(-c2cccc3c2CCCC3)c1=O)c1ccc(F)cc1 [Compound 90]; 0
2) CCN(CC)C(=O)n1oc(=O)n(Cc2ccccc2)c1=O [Compound 152]; 0
3) CC(C)N(C(=O)n1oc(=O)n([C@@H](C)c2ccccc2)c1=O)c1ccc(Cl)cc1 [Compound 174]; 0
4) Cc1nsc(C)c1-n1c(=O)on(C(=O)N(c2ccc(F)cc2)C(C)C)c1=O [Compound 157]; 0

In: Hello, I am looking for reported Plant response rating, Velvetleaf with velvetleaf for CC(C)N(C(=O)n1oc(=O)n(N(C)C)c1=O)c1ccc(F)cc1 [Compound 170] . Could you help?
Out: 5

---

Plant response rating, Redroot pigweed listing for selected molecules.
Test system: pigweed
Assay: Test B pre/postemergence pigweed
Type: in vivo, Amaranthus retroflexus
Settings: Preemergence, Rate 125 g/ha; scale of 0 to 10 where 0 is no effect and 10 is complete control
Respond with the number and no other words.

// known answers, use as guide
1) CC(C)N(C(=O)n1oc(=O)n(CCS(C)(=O)=O)c1=O)c1ccc(F)cc1; 4
2) CC(C)N(C(=O)n1oc(=O)n(CC2=NOCCO2)c1=O)c1ccc(Cl)cc1; 9
3) CC(C)N(C(=O)n1oc(=O)n(C(C)C(=O)N(C)C)c1=O)c1ccc(F)cc1 (stereo not drawn); 8
4) COC(C)n1c(=O)on(C(=O)N(c2ccccc2)C(C)C)c1=O (stereo not drawn); 0
5) CC(C)N(C(=O)n1oc(=O)n(CC#N)c1=O)c1ccccc1; 0
6) CCOC(=O)C=C(Cn1c(=O)on(C(=O)N(c2ccc(F)cc2)C(C)C)c1=O)OCC; 0
7) CC(C)N(C(=O)n1oc(=O)n(CCF)c1=O)c1ccc(F)cc1F; 10
8) C=C(Cn1c(=O)on(C(=O)N(c2ccc(F)cc2)C(C)C)c1=O)C(=O)OC; 0

As a next step, examine the molecule that follows.
In: # get_value(readout='Plant response rating, Redroot pigweed', item= CC(C)N(C(=O)n1oc(=O)n(Cc2nnc(-c3ccccc3)o2)c1=O)c1ccccc1 )
Out: 0

---

Tested on: crabgrass
Test: Test B pre/postemergence crabgrass
Assay type: in vivo, Digitaria sanguinalis
Conditions: Preemergence, Rate 125 g/ha; 0 is no effect, 10 is complete control
property: Crabgrass plant response rating (0 to 10 scale)
Just the number, please.

In: Entry CC(C)N(Cc1ccccc1)C(=O)n1oc(=O)n(C(C)C)c1=O has what Crabgrass plant response rating (0 to 10 scale)?
Out: 7

In: Same lookup for CCN(CC)C(=O)n1oc(=O)n(Cc2ccccc2)c1=O , please.
Out: 0

In: Same for CC(C)N(C(=O)n1oc(=O)n([C@@H](C)c2ccccc2)c1=O)c1ccc(F)cc1
Out: 8

---

Here, each record is paired with measured Crabgrass plant response rating data.
System: crabgrass
Assay: Test B pre/postemergence crabgrass
Assay type: in vivo, Digitaria sanguinalis
Settings: Preemergence, Rate 62 g/ha; scale of 0 to 10 where 0 is no effect and 10 is complete control
Please respond with just the number, no unit label.

1) CC(C)N(C(=O)n1oc(=O)n(Cc2nnsc2Cl)c1=O)c1ccccc1; 0

In: Can you share its Crabgrass plant response rating? I mean this compound: CC(C)=CCCC(C)=CCn1c(=O)on(C(=O)N(c2ccc(F)cc2)C(C)C)c1=O
Out: 0

In: Now give it for CC(C)N(C(=O)n1oc(=O)n(Cc2nnc(-c3ccccc3)o2)c1=O)c1ccccc1 too.
Out: 0

In: CCOCn1c(=O)on(C(=O)N(c2ccc(F)cc2)C(C)C)c1=O , same question.
Out: 2

In: Then CC1CCCCC1n1c(=O)on(C(=O)N(c2ccccc2)C(C)C)c1=O (centres unmarked) ?
Out: 6

In: Try this compound next: CC(C)N(C(=O)n1oc(=O)n(C[Si](C)(C)C)c1=O)c1ccc(F)cc1
Out: 1

In: Moving on to CC(=O)OCCCCn1c(=O)on(C(=O)N(c2ccc(F)cc2)C(C)C)c1=O
Out: 0

In: // repeat for Cc1ccccc1N(C(=O)n1oc(=O)n(-c2ccccc2C)c1=O)C(C)C and report
Out: 2

In: For CC(C)N(C(=O)n1oc(=O)n(CCF)c1=O)c1ccc(F)cc1F then?
Out: 10

In: Another compound to check: CC(C)N(C(=O)n1oc(=O)n([C@@H](C)c2ccccc2)c1=O)c1ccc(F)cc1
Out: 7

In: Further, for CC(C)N(C(=O)n1oc(=O)n(Cc2ccco2)c1=O)c1ccc(Cl)cc1 ?
Out: 0

In: Would you kindly repeat that for CC(C)N(Cc1ccccc1)C(=O)n1oc(=O)n(C(C)C)c1=O ?
Out: 4

In: Request: CC(C)N(C(=O)n1oc(=O)n([C@@H](C)c2ccccc2)c1=O)c1ccccc1
Out: 0

In: Please do the same for CC(C)N(C(=O)n1oc(=O)n(-c2ccc(OC(F)(F)F)cc2)c1=O)c1ccc(F)cc1 as well.
Out: 3

---

The following molecules are listed with their measured Nutsedge plant response rating values.
Test system: purple nutsedge
Test: Test B pre/postemergence purple nutsedge
Type: in vivo, Cyperus rotundus
Conditions: Preemergence, Rate 62 g/ha; scale 0 to 10 (0 no effect, 10 complete control)
Output: the number by itself.

Here is how some molecules turned out for Nutsedge plant response rating.
1) CCCn1c(=O)on(C(=O)N(c2ccccc2)C(C)C)c1=O; 0
2) Cc1cc(C)c(-n2c(=O)on(C(=O)N(c3ccc(Cl)cc3)C(C)C)c2=O)c(C)c1; 0

Moving on to another molecule below.
In: Look at this molecule and give its reported Nutsedge plant response rating. COc1ccccc1Cn1c(=O)on(C(=O)N(c2ccccc2)C(C)C)c1=O
Out: 0

Source listed as patent US6737383B1.
